# System: Saccharomyces cerevisiae;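 further: PSI is a weighted mean of sequencing reads over stability bins, variants kept only with over 10 reads, mCherry proximal and sfGFP distal, peptide attached via GGGS linker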
# experimental.details: protein stability index of tFT-peptide fusion (C-terminal peptide) (PSI (0-1 scale)); higher = more stable (slower turnover)
# measurement.setup: genetic background: wild type; temperature: 30 C
readout: protein stability index
One number for each entry.

Use the examples below as a reference point.
>>> value("APACVAGGGQRL")
0.681
>>> value("CFSSLRFCLPSV")
0.686
>>> value("VFCMVLPFVLLT")
0.214
>>> value("PLSFPALFSPLS")
0.684
>>> value("GGGGWGRGKGCW")
0.719

Provide the reported protein stability index of each entry below, same order.
1. GLPSSYLSALFR
2. VSSFLLPFCLLF
3. SVSVFLMGLRGT
4. FGCRARYDLVLI
5. VMLVISRLLLLF

Result:
[0.708, 0.51, 0.694, 0.641, 0.174]

For each of the items listed, what is its protein stability index?
1. DLPRCTLSVEDT
2. DLPVIGHRLPLF
3. VSCLPFLDLMSW
4. EFLVSVRPFASP
5. CSLGCSLSALDS

Result:
0.703
0.684
0.701
0.696
0.663

For the 4 sequences below, give their protein stability index values.
1. LPITTPLPPLDP
2. KKRHYSCYKNTN
3. VVCLGGVVLPRV
4. QRWKEGRGHSRQ

Result:
[0.688, 0.725, 0.658, 0.686]

Batch request: protein stability index per item, same order as input.
1. VVPSRCCQRLRK
2. HIVSRKYNYPCT
3. PHADFALFPFSP
4. RKEKKMKITKRC
5. TPSPPTLHPPPP

Result:
1. 0.716
2. 0.739
3. 0.785
4. 0.691
5. 0.691

Hey, quick one: what's protein stability index for each of these?
1. LDSSPPCSSNCD
2. GATAGNPEATPS
3. MTYKSKNRATEE
4. SRSAPPPSPGMT
5. GGGRGAGIPVIF
6. LWVREVVVVGTV

Result:
[0.736, 0.624, 0.648, 0.746, 0.623, 0.519]

Could you report protein stability index for every entry in the following list?
1. LIFDISDLVWYI
2. FPATSTCTFALY
3. RRRSSRPAPPPL

Result:
0.636
0.665
0.698

// sample IPGDTLSTTTVT , its protein stability index was 0.67
